assayReadout: pIC50
Would you please state pIC50, meaning minus log10 of the concentration in mol/L, as a bare number?

Please state recorded pIC50 (tested on histamine H4 receptor (Homo sapiens)) of CC1Cc2ccc(C3CCN(C(=O)C4CC4)CC3)cc2CN1c1cc(N2CCN(C)CC2)nc(N)n1 (stereo not shown) [Example 150] 7.65

Please state recorded pIC50 (tested on histamine H4 receptor (Homo sapiens)) of CC1Cc2ccc(-c3ccnc(C(=O)N4CC[C@H](O)C4)c3)cc2CN1c1cc(N2CCN(C)CC2)nc(N)n1 (single isomer, unassigned) [Example 65A] 6.97

Please state recorded pIC50 (tested on histamine H4 receptor (Homo sapiens)) of CN1CCN(c2cc(N3CCc4ccc(N5CCC(c6ccn(C)c(=O)c6)CC5)cc4C3)nc(N)n2)CC1 [Example 41] 7.42

Please state recorded pIC50 (tested on histamine H4 receptor (Homo sapiens)) of CC1Cc2ccc(-c3cnn(C)c3)cc2CN1c1cc(N2CC[C@@H](N)C2)nc(N)n1 (stereo partly shown) [Example 118] 6.59

Please state recorded pIC50 (tested on histamine H4 receptor (Homo sapiens)) of CC1Cc2ccc(-c3ccnc(C(=O)N(C)CCN(C)C)c3)cc2CN1c1cc(N2CCN(C)CC2)nc(N)n1 (single isomer, unassigned) [Example 68A] 7.52

Please state recorded pIC50 (tested on histamine H4 receptor (Homo sapiens)) of CN1CCN(c2cc(N3Cc4ccccc4C[C@H]3CO)nc(N)n2)CC1 [Example 15] 6.84

Please state recorded pIC50 (tested on histamine H4 receptor (Homo sapiens)) of CNC(=O)c1ccc(C2CCN(c3ccc4c(c3)CN(c3cc(N5CCN(C)CC5)nc(N)n3)CC4)CC2)cc1 [Example 39] 7.29

Please state recorded pIC50 (tested on histamine H4 receptor (Homo sapiens)) of CC1Cc2ccc(C3CCN(C(=O)N(C)C)CC3)cc2CN1c1cc(N2CCN(C)CC2)nc(N)n1 (stereo not shown) [Example 144] 7.62

Please state recorded pIC50 (tested on histamine H4 receptor (Homo sapiens)) of CC1Cc2ccc(-c3ccnc(C(=O)N4CCC4)c3)cc2CN1c1cc(N2CCN(C)CC2)nc(N)n1 (single isomer, unassigned) [Example 62B] 7.31

Please state recorded pIC50 (tested on histamine H4 receptor (Homo sapiens)) of CC1Cc2ccc(-c3ccc(C(=O)N(C)C)nc3)cc2CN1c1cc(N2CCN(C)CC2)nc(N)n1 (single isomer, unassigned) [Example 50A] 7.05

Please state recorded pIC50 (tested on histamine H4 receptor (Homo sapiens)) of CC1Cc2ccc(-c3cnn(C(C)C)c3)cc2CN1c1cc(N2CCN(C)CC2)nc(N)n1 (single isomer, unassigned) [Example 105] 7.28

Please state recorded pIC50 (tested on histamine H4 receptor (Homo sapiens)) of CC1Cc2ccc(-c3ccc(C(=O)N[C@H](C)CO)nc3)cc2CN1c1cc(N2CCN(C)CC2)nc(N)n1 (single isomer, unassigned) [Example 51A] 7.12

Please state recorded pIC50 (tested on histamine H4 receptor (Homo sapiens)) of CC1Cc2ccc(-c3cnn(CC4(C#N)CC4)c3)cc2CN1c1cc(N2CCN(C)CC2)nc(N)n1 (single isomer, unassigned) [Example 97A] 7.36

Please state recorded pIC50 (tested on histamine H4 receptor (Homo sapiens)) of CC1Cc2ccc(-c3cnn(CC4CCCC4)c3)cc2CN1c1cc(N2CCN(C)CC2)nc(N)n1 (single isomer, unassigned) [Example 109] 7.00

Please state recorded pIC50 (tested on histamine H4 receptor (Homo sapiens)) of CC1Cc2ccc(-c3ccnc(C(=O)N4CCN(C)CC4)c3)cc2CN1c1cc(N2CCN(C)CC2)nc(N)n1 (single isomer, unassigned) [Example 70] 7.07

Please state recorded pIC50 (tested on histamine H4 receptor (Homo sapiens)) of CCNC(=O)c1cc(-c2ccc3c(c2)CN(c2cc(N4CCN(C)CC4)nc(N)n2)C(C)C3)cn1C (single isomer, unassigned) [Example 88A] 7.60

----------
target: histamine H4 receptor (Homo sapiens, UniProt Q9H3N8)
Sequence (Q9H3N8 whole entry): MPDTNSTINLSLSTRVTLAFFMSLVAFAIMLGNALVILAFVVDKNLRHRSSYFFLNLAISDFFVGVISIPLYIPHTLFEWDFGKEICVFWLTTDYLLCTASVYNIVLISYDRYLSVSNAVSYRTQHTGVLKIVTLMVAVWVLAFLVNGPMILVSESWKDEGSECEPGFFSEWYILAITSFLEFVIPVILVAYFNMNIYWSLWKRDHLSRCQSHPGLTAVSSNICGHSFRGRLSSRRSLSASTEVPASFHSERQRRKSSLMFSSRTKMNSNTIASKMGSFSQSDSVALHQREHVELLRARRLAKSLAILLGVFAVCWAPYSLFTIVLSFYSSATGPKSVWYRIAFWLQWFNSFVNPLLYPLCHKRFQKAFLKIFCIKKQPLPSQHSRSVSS
assayReadout: IC50 (nM)
Enter your answer as a number in nM; do not include the unit.

Please state recorded IC50 (tested on histamine H4 receptor (Homo sapiens, UniProt Q9H3N8)) of CC1Cc2ccc(-c3cnn(CC4CCCO4)c3)cc2CN1c1cc(N2CCN(C)CC2)nc(N)n1 (single isomer, unassigned) [Example 99A] 83

Please state recorded IC50 (tested on histamine H4 receptor (Homo sapiens, UniProt Q9H3N8)) of CC1Cc2ccc(-c3ccnc(C(=O)N(C)C)c3)cc2CN1c1cc(N2CCN(C)CC2)nc(N)n1 (single isomer, unassigned) [Example 61A] 110

Please state recorded IC50 (tested on histamine H4 receptor (Homo sapiens, UniProt Q9H3N8)) of CN[C@@H]1CCN(c2cc(N3Cc4cc(-c5cnn(C)c5)ccc4CC3C)nc(N)n2)C1 (stereo partly drawn) 121
